These entries and their values trace back to the supplement of paper PMC7125110.

B1: glmS ribozyme (parent)
chain: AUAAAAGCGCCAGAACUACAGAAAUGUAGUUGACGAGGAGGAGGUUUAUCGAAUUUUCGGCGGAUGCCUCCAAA

Variants of: B1
test method notes: self-cleavage kobs at 2500 uM GlcN6P; higher = faster cleavage; RNA array
condition details: with glucosamine-6-phosphate
Variants at the floor of the assay were thinned out.

mutation label: C16A U54G
bound type: =
self-cleavage kobs at 2500 uM GlcN6P, s⁻¹: 0.000532

mutation label: G40U A42U
bound type: =
self-cleavage kobs at 2500 uM GlcN6P, s⁻¹: 0.000109

mutation label: A53G U56A
bound type: =
self-cleavage kobs at 2500 uM GlcN6P, s⁻¹: 0.00663

mutation label: U45C U47A
bound type: =
self-cleavage kobs at 2500 uM GlcN6P, s⁻¹: 0.000441

mutation label: U30C G66A
bound type: =
self-cleavage kobs at 2500 uM GlcN6P, s⁻¹: 0.000153

mutation label: A42C A52G U55A U57G C68U C70U
bound type: <
self-cleavage kobs at 2500 uM GlcN6P, s⁻¹: 1e-05

mutation label: A12G G43A U46G U69G
bound type: <
self-cleavage kobs at 2500 uM GlcN6P, s⁻¹: 1e-05

mutation label: C10G G13C A39G
bound type: <
self-cleavage kobs at 2500 uM GlcN6P, s⁻¹: 1e-05

mutation label: A33G A53U G60U C71G
bound type: <
self-cleavage kobs at 2500 uM GlcN6P, s⁻¹: 1e-05

mutation label: G40U G43U C50G
bound type: <
self-cleavage kobs at 2500 uM GlcN6P, s⁻¹: 1e-05

mutation label: C10U A52U C68G
bound type: =
self-cleavage kobs at 2500 uM GlcN6P, s⁻¹: 6.27e-05

mutation label: C11A G29U A33C G63C
bound type: <
self-cleavage kobs at 2500 uM GlcN6P, s⁻¹: 1e-05

mutation label: U47C A52G G66A
bound type: =
self-cleavage kobs at 2500 uM GlcN6P, s⁻¹: 0.000112

mutation label: G29C A53G
bound type: =
self-cleavage kobs at 2500 uM GlcN6P, s⁻¹: 0.000948

mutation label: A52G C61G U69A
bound type: =
self-cleavage kobs at 2500 uM GlcN6P, s⁻¹: 5.25e-05

mutation label: G37A C50G C71A
bound type: =
self-cleavage kobs at 2500 uM GlcN6P, s⁻¹: 6.17e-05

mutation label: A14C A15G C70U
bound type: =
self-cleavage kobs at 2500 uM GlcN6P, s⁻¹: 0.00207

mutation label: A14G C16U C34A G41A A52C
bound type: <
self-cleavage kobs at 2500 uM GlcN6P, s⁻¹: 1e-05

mutation label: C8G A39U C71A
bound type: <
self-cleavage kobs at 2500 uM GlcN6P, s⁻¹: 1e-05

mutation label: U27G A28U U30G C68A
bound type: <
self-cleavage kobs at 2500 uM GlcN6P, s⁻¹: 1e-05

mutation label: A12C C58U
bound type: =
self-cleavage kobs at 2500 uM GlcN6P, s⁻¹: 4.66e-05

mutation label: G32U U56C
bound type: =
self-cleavage kobs at 2500 uM GlcN6P, s⁻¹: 0.000105
